# SYSTEM: von Willebrand factor (VWF) (Homo sapiens)
# ASSAY_NOTES: filter
# CONDITION_DETAILS: 2'-F pyrimidines; pool after 4 rounds convergent SELEX
QUANTITY_KIND: Kd

>>> df
                             sequence_input                                    system  value_measured
0  GGGAGGACGAUGCGGNNNNNNNNNNNNNNNNNNNNNNNNNNNNNNNNNNNNNNNNCAGACGACUCGCUGAGGAUCC [VWF convergent SELEX round 4 pool (R9)]  von Willebrand factor (VWF) (Homo sapiens)          4.5 nM

Data provenance: patent US20120264815
